The following compounds were reported with IC50 values on EED-EZH2 (Homo sapiens (Human), UniProt O75530) in different studies.
# strict inequality: IC50 < 10 nM yields 1 (yes), everything else yields 0 (no)

Answered cases to consult:
Report whether reported IC50 is lower than 10 nM (strictly) for `O=C1CCCN1c1cncc(-c2cnc(NCc3cccc4c3CCO4)n3cnnc23)c1`
0 (no)

Report whether reported IC50 is lower than 10 nM (strictly) for `Fc1ccc2c(c1CNc1ncc(C3=CCCOCC3)c3nncn13)CCO2`
1 (yes)

Continuing:
Report whether reported IC50 is lower than 10 nM (strictly) for `Cc1c(-c2cnc(NCc3c(F)ccc4c3CCO4)n3cncc23)ccnc1CF`
0 (no)

Report whether reported IC50 is lower than 10 nM (strictly) for `Cc1c(-c2cnc(NCc3c(F)ccc4c3CCO4)n3cnnc23)cnn1C`
1 (yes)

Report whether reported IC50 is lower than 10 nM (strictly) for OCc1ncccc1-c1cnc(NCc2c(F)ccc3c2C(O)CO3)n2cnnc12 (stereo not drawn)
0 (no)

Report whether reported IC50 is lower than 10 nM (strictly) for `O=CN1CCN(c2ccc(-c3cnc(NCc4cccc5c4CCO5)n4cnnc34)cn2)CC1`
0 (no)
